# Tested on: c-Src
# PROCEDURE_TEXT: phosphorylation enrichment, bacterial display (enrichment ratio); higher = better substrate or ligand; peptides without Tyr show the background
# key: entry, value: phosphorylation enrichment
Keep it simple and answer with nothing but the number.

GET /values?readout=phosphorylation enrichment&item= QEIATCRRLLE [KRT14_Y415_Y415C]
0.372

Suppose we examine the sequence LLREWYLQDPY [SIX3_Y225] ; what phosphorylation enrichment value has been reported?
1.11

State the recorded phosphorylation enrichment for this entry: RRETPYGGGGG [FUS_Y526_R524T]
0.628

More entries:
Returns the measured phosphorylation enrichment for the input sequence. Input: VGGRIYTDDGL [PKLR_Y218_I219T]
0.306

Suppose we examine the sequence SHGQDYLAGNK [GSTA2_Y147_V149A] ; what phosphorylation enrichment value has been reported?
0.404

What value of phosphorylation enrichment has been reported for the following sequence? ALETLYKKAVK [CC2D2A_Y381_E376A]
0.307

For the sequence shown here, CKLYQYYLDHL [ATRX_Y1849] , give the reported phosphorylation enrichment.
2.05

* * *

Listing of entries alongside the reported SH2 binding enrichment.
# MEASURED_TARGET: SHP2-C SH2;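 further: peptide library displayed on the E. coli surface as eCPX fusions, selected cells deep-sequenced, score is each peptide's frequency after selection divided by its frequency in the input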
# PROCEDURE_TEXT: SH2 binding enrichment of the phosphorylated peptide, bacterial display (enrichment ratio); higher = better substrate or ligand; peptides without Tyr show the background
Lab note: jot down the number only; don't add units.

Reported SH2 binding enrichment for SHP2-C SH2, given EAVLHYKHQNQ [MTOR_Y1804] ?
0.549

Return SH2 binding enrichment measured with SHP2-C SH2 given this sequence: EHTILYSNNST [KANSL1_Y223_T221I]
0.71

Query for SHP2-C SH2: what SH2 binding enrichment does the record show for PINLYYLMDLS [ITGB2_Y131_D128N] ?
1.16

Any idea what SH2 binding enrichment came out for IVKAYYVHARA [AIPL1_Y268_R270H] on SHP2-C SH2?
1.95

Tell me reported SH2 binding enrichment for KLFYIYTSGTT [SLC27A4_Y245] , tested with SHP2-C SH2.
1.34

Could you now look at the following sequence, please?
Which SH2 binding enrichment is reported with SHP2-C SH2 for this entry: EGGFAYVPLKD [PRIM2_Y208_D204G] ?
0.436

* * *

# Tested on: Fer (mouse)
# PROCEDURE_TEXT: phosphorylation enrichment, bacterial display (enrichment ratio); higher = better substrate or ligand; peptides without Tyr show the background
Quick reference for phosphorylation enrichment among some sequences

Report phosphorylation enrichment for TKFVAYIESQG [KDM4B_Y34_N29T_YF] please.
0.403

New cases:
State the recorded phosphorylation enrichment for this entry: TEGNGYISFNE [LCP1_Y28_D24E]
0.487

Dear colleague, I am looking for the recorded phosphorylation enrichment of the following sequence: LVSCAYQMARG [FGFR1_Y605_V607M]
0.824

# query: phosphorylation enrichment of entry ARRHPYFYAPE [ALB_Y172]
0.58

Which phosphorylation enrichment is listed for YRNKPYISWPS [CDC42BPB_Y1638_S1633Y] ?
0.394

Query: phosphorylation enrichment; subject: NHYKICNLCAE [PTEN_Y68_Y68C]
0.384

Sample KTKLGYSPLHQ [ANK1_Y735] — what was its phosphorylation enrichment?
0.354

* * *

Each item that follows carries a reported phosphorylation enrichment.
# MEASURED_TARGET: FGFR1 (UniProt P11362)
# Sequence (P11362 whole entry, looked up): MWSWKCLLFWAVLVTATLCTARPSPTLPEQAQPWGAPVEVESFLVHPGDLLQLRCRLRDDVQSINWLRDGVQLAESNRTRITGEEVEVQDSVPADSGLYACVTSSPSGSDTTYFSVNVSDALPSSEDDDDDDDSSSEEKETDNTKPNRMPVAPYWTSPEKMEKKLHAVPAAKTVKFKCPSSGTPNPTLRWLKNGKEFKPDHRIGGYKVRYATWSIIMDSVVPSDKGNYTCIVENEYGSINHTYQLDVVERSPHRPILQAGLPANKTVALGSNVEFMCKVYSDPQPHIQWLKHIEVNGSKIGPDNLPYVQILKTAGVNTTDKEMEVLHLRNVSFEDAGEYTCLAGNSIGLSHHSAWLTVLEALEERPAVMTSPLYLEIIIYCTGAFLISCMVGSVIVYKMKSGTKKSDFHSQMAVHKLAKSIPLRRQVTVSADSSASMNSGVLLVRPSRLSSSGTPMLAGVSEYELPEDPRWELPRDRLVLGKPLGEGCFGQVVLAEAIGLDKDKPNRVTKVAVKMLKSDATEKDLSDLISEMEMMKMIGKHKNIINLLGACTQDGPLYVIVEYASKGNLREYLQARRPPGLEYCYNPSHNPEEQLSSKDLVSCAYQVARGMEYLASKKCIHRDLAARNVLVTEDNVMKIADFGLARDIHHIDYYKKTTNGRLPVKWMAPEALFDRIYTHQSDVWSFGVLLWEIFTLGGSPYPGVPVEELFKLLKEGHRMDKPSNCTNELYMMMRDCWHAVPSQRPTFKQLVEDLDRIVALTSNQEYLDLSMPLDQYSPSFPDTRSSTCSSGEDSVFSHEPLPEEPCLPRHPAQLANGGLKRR
# PROCEDURE_TEXT: phosphorylation enrichment, bacterial display (enrichment ratio); higher = better substrate or ligand; peptides without Tyr show the background
Answer field: number only, no words.

Worked set:
Given the sequence HLWRIYFDITD [MMP27_Y307_YF] , what is its reported phosphorylation enrichment?
0.973

Which measured phosphorylation enrichment value corresponds to HPFHVYSQPGM [BAG3_Y114_P115S] ?
0.753

Request the reported phosphorylation enrichment associated with CEHRGCLYLAI [TEK_Y897_Y897C]
0.405

New cases:
Fill in: phosphorylation enrichment of KTGDFYDLFGG [PTPN11_Y63_N58K_YF] is ___
0.523

Looking for the measured phosphorylation enrichment of EAVLHYKHQNQ [MTOR_Y1804] , can you help?
0.338

Tell me the measured phosphorylation enrichment of NHYKICNLCAE [PTEN_Y68_Y68C] , please.
0.488

# input sequence: VSYDEYRYRSF [CFTR_Y515_V520F] ; wanted: its phosphorylation enrichment
0.486

Requested field: phosphorylation enrichment. Item: ATHRSYDSDNP [MMUT_Y146_G145S]
0.593

Please give the measured phosphorylation enrichment for this sequence: SVTCTYYPALN [TP53_Y126_S127Y]
0.499

Find the recorded phosphorylation enrichment belonging to GKFHMYVAVWT [F13A1_Y161_R159H] and report it.
0.516

Requested read-out: phosphorylation enrichment. Entry: SGPRRYTIAAL [TTR_Y125]
0.456

Reported phosphorylation enrichment, sequence GVRTIYTIDGS [DCLK2_Y124] : ____
0.581

Form field: reported phosphorylation enrichment of RLCQDYDTIGP [ANK1_Y1073]
0.541

Requested read-out: phosphorylation enrichment. Entry: ISHVAYLVLGK [TRRAP_Y892_R893L]
0.535

Recorded values, source the supplement of paper PMC10065799.
